biological target: EPH-A5 (Homo sapiens); test: Kinase panel (mobility shift); type: biochemical; details: at 5 um
Sequence (P54756 25-1037, species assumed): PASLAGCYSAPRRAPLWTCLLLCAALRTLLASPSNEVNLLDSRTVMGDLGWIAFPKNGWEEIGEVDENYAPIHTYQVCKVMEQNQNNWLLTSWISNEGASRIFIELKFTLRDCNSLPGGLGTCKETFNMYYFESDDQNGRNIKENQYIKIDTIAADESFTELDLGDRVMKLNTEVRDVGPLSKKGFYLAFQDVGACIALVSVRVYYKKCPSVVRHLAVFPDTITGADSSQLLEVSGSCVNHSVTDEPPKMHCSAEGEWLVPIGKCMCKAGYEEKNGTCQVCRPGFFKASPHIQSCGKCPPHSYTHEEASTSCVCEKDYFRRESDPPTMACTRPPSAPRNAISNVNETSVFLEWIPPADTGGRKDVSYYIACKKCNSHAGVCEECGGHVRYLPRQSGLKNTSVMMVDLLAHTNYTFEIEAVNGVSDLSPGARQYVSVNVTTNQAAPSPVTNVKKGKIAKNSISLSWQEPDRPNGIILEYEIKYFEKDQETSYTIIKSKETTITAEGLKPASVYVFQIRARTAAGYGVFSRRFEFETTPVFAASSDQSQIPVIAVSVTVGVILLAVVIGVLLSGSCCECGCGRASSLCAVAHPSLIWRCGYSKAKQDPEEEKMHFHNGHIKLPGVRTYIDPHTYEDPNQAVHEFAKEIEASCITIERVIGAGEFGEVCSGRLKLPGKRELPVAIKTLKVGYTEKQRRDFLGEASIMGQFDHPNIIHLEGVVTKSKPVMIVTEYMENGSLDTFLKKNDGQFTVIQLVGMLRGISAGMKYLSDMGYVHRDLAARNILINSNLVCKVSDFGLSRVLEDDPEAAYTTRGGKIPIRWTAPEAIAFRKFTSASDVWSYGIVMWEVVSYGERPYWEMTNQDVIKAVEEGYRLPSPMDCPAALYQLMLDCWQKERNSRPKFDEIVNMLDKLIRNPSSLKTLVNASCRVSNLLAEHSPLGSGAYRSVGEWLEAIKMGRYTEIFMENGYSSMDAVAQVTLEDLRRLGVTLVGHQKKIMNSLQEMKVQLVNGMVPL

# Smiles record, Study target, inhibition of kinase activity, EPH-A5
data = [
    ("CNC(=O)c1cc(Oc2ccc(NC(=O)c3nc(NC)oc3-c3ccc(F)cc3)cc2F)ccn1", "EPH-A5 (Homo sapiens)", "D (category D for 50-79)"),
    ("CSc1nc(C(=O)Nc2ccc(Oc3cc4cnn(C)c4cc3Br)c(F)c2)c(-c2ccc(F)cc2)o1", "EPH-A5 (Homo sapiens)", "D (category D for 50-79)"),
]

----------
biological target: EPH-A4 (Homo sapiens); assay: Kinase panel (mobility shift); format: biochemical
Sequence (P54764 20-986, species assumed): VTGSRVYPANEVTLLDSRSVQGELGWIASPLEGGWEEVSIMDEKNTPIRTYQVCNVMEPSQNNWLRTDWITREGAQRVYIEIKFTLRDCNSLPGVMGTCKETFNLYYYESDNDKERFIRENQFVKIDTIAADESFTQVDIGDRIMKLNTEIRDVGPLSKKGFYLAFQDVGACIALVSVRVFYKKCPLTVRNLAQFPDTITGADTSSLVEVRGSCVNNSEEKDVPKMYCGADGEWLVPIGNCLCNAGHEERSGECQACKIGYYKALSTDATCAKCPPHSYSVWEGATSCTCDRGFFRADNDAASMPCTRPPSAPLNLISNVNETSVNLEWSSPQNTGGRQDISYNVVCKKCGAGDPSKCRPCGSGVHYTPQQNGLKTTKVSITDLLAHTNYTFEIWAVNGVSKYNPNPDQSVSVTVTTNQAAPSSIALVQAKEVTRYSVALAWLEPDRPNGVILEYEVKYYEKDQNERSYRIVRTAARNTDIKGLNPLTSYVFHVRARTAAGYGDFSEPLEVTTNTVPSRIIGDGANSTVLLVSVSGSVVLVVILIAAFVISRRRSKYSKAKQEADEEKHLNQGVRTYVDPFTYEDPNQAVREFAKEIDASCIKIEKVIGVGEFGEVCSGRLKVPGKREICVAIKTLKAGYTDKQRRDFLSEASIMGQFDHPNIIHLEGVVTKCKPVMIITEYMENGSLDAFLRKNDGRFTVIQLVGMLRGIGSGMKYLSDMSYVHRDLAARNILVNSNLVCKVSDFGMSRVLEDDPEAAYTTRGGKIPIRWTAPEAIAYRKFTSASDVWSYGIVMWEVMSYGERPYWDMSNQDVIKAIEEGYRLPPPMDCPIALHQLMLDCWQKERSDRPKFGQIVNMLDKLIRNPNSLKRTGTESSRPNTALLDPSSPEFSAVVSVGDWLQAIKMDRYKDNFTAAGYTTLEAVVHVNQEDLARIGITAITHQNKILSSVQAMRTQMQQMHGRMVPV
Measured attribute: inhibition at 5 µM

Looking up "CSc1nc(C(=O)Nc2ccc(Oc3cc4cnn(C)c4cc3Br)c(F)c2)c(-c2ccc(F)cc2)o1" , I found its inhibition at 5 µM recorded as 50 to 79%

Looking up "CNC(=O)c1cc(Oc2ccc(NC(=O)c3nc(NC)sc3-c3ccc(F)cc3C)cc2F)ccn1" , I found its inhibition at 5 µM recorded as 50 to 79%

Looking up "CNC(=O)c1cc(Oc2ccc(NC(=O)c3nc(C4CC4)oc3-c3ccc(F)cc3)cc2F)ccn1" , I found its inhibition at 5 µM recorded as 80 to 89%

Looking up "CNC(=O)c1cc(Oc2ccc(NC(=O)c3nc(NC)sc3-c3ccc(F)cc3F)cc2F)ccn1" , I found its inhibition at 5 µM recorded as < 50%

Looking up "CNC(=O)c1cc(Oc2ccc(NC(=O)c3nc(OCC(F)(F)F)oc3-c3ccc(F)cc3)cc2F)ccn1" , I found its inhibition at 5 µM recorded as < 50%

Looking up "CSc1nc(C(=O)Nc2ccc(Oc3ccnc(C(=O)NC4COC4)c3)c(F)c2)c(-c2ccc(F)c(F)c2)o1" , I found its inhibition at 5 µM recorded as < 50%

Looking up "CNC(=O)c1cc(Oc2ccc(NC(=O)c3nc(SC)oc3-c3ccc(OC)cc3)cc2)ccn1" , I found its inhibition at 5 µM recorded as < 50%

Looking up "COc1nc(C(=O)Nc2ccc(Oc3ccnc(C(=O)NCC(F)(F)F)c3)c(F)c2)c(-c2ccc(F)cc2)o1" , I found its inhibition at 5 µM recorded as < 50%

Looking up "CNC(=O)c1cc(Oc2ccc(NC(=O)c3nc(SC(C)C)oc3-c3ccc(F)cc3)cc2F)ccn1" , I found its inhibition at 5 µM recorded as 90 to 94%

Looking up "[2H]C([2H])([2H])NC(=O)c1cc(Oc2ccc(NC(=O)c3nc(SC)oc3-c3ccc(F)s3)cc2F)ccn1" , I found its inhibition at 5 µM recorded as < 50%

Looking up "CNC(=O)c1cc(Oc2ccc(NC(=O)c3nc(SC)oc3-c3ccc(F)cc3Cl)cc2)ccn1" , I found its inhibition at 5 µM recorded as < 50%

Looking up "CSc1nc(C(=O)Nc2ccc(Oc3ccnc(C(=O)NC4COC4)c3)c(F)c2)c(-c2ccc(F)s2)o1" , I found its inhibition at 5 µM recorded as < 50%

Looking up "CNC(=O)c1cc(Oc2ccc(NC(=O)c3nc(COC)oc3-c3ccc(F)cc3)cc2F)ccn1" , I found its inhibition at 5 µM recorded as 90 to 94%

Looking up "CNC(=O)c1cc(Oc2ccc(NC(=O)c3nc(OC4CC4)oc3-c3ccc(F)cc3)cc2F)ccn1" , I found its inhibition at 5 µM recorded as 50 to 79%

Looking up "CSc1nc(C(=O)Nc2ccc(Oc3ccnc(N)c3Cl)c(F)c2)c(-c2ccc(F)cc2)o1" , I found its inhibition at 5 µM recorded as < 50%

Looking up "CSc1nc(C(=O)Nc2ccc(Oc3ccnc(C(=O)NC4CNC4)c3)c(F)c2)c(-c2ccc(F)cc2)o1" , I found its inhibition at 5 µM recorded as 50 to 79%

Looking up "CNC(=O)c1cc(Oc2ccc(NC(=O)c3nc(SC)oc3-c3ccc(Cl)s3)cc2)ccn1" , I found its inhibition at 5 µM recorded as < 50%

Looking up "CNC(=O)c1cc(Oc2ccc(NC(=O)c3nc(SC)oc3-c3ccc(F)c(F)c3)cc2)ccn1" , I found its inhibition at 5 µM recorded as < 50%

Looking up "CSc1nc(C(=O)Nc2ccc(Oc3ccnc(C(=O)NCCN(C)C)c3)c(F)c2)c(-c2ccc(F)cc2)o1" , I found its inhibition at 5 µM recorded as 50 to 79%

Looking up "CNC(=O)c1cc(Oc2ccc(NC(=O)c3nc(S(C)(=O)=O)sc3-c3ccc(F)cc3)cc2F)ccn1" , I found its inhibition at 5 µM recorded as 50 to 79%

Looking up "CNC(=O)c1cc(Oc2ccc(NC(=O)c3nc(OC)oc3-c3ccc(F)c(F)c3)cc2F)ccn1" , I found its inhibition at 5 µM recorded as < 50%

Looking up "CNC(=O)c1cc(Oc2ccc(NC(=O)c3nc(SC)oc3-c3ccc(F)s3)cc2F)ccn1" , I found its inhibition at 5 µM recorded as < 50%

Looking up "CNC(=O)c1cc(Oc2c(F)cc(NC(=O)c3nc(NC)sc3-c3ccc(F)cc3)cc2F)ccn1" , I found its inhibition at 5 µM recorded as 50 to 79%

Looking up "CNC(=O)c1cc(Oc2ccc(NC(=O)c3nc(NC)oc3-c3ccc(F)s3)cc2F)ccn1" , I found its inhibition at 5 µM recorded as < 50%

Looking up "CSc1nc(C(=O)Nc2ccc(Oc3ccnc(C(=O)NC4CNC4)c3)c(F)c2)c(-c2ccc(F)s2)o1" , I found its inhibition at 5 µM recorded as < 50%

Looking up "CSc1nc(C(=O)Nc2ccc(Oc3ccnc(C(=O)NCC(F)(F)F)c3)c(F)c2)c(-c2ccc(F)cc2)o1" , I found its inhibition at 5 µM recorded as < 50%

Looking up "CNC(=O)c1cc(Oc2ccc(NC(=O)c3nc(OC)oc3-c3ccc(F)s3)cc2F)ccn1" , I found its inhibition at 5 µM recorded as < 50%

Looking up "CNC(=O)c1cc(Oc2ccc(NC(=O)c3nc(SC)oc3-c3ccc(F)cc3F)cc2F)ccn1" , I found its inhibition at 5 µM recorded as 50 to 79%

Looking up "CNC(=O)c1cc(Oc2ccc(NC(=O)c3nc(SC)oc3-c3ccc(F)cc3F)cc2)ccn1" , I found its inhibition at 5 µM recorded as < 50%

Looking up "CNC(=O)c1cc(Oc2ccc(NC(=O)c3nc(NC)oc3-c3ccc(F)cc3)cc2F)ccn1" , I found its inhibition at 5 µM recorded as 50 to 79%

----------
biological target: UniProt P54756; assay: Kinase panel (mobility shift); assay type: biochemical; settings: at 5 um
Measured attribute: inhibition of kinase activity, EPH-A5

Example compounds with recorded inhibition of kinase activity, EPH-A5:
# Smiles record, Measured result
measured = [
    ("CNC(=O)c1cc(Oc2c(F)cc(NC(=O)c3nc(NC)sc3-c3ccc(F)cc3)cc2F)ccn1", "D (category D for 50-79)"),
    ("CNC(=O)c1cc(Oc2ccc(NC(=O)c3nc(NC)sc3-c3ccc(F)cc3C)cc2F)ccn1", "D (category D for 50-79)"),
    ("CSc1nc(C(=O)Nc2ccc(Oc3ccnc(-c4cnn(C)c4)c3)c(F)c2)c(-c2ccc(F)cc2)o1", "C (C=80%-89% at 5 um)"),
    ("CSc1nc(C(=O)Nc2ccc(Oc3ccnc(C(=O)NCCN(C)C)c3)c(F)c2)c(-c2ccc(F)cc2)o1", "D (category D for 50-79)"),
    ("CNC(=O)c1cc(Oc2ccc(NC(=O)c3nc(COC)oc3-c3ccc(F)cc3)cc2F)ccn1", "C (C=80%-89% at 5 um)"),
]

Shift focus to the following entry.
Looking up "CNC(=O)c1cc(Oc2ccc(NC(=O)c3nc(OC)oc3-c3ccc(F)cc3)cc2F)ccn1" , I found its inhibition of kinase activity, EPH-A5 recorded as D (category D for 50-79)

----------
target: RIPK2 (Homo sapiens); test: Kinase panel (mobility shift); format: biochemical
Sequence (O43353 whole entry, species assumed): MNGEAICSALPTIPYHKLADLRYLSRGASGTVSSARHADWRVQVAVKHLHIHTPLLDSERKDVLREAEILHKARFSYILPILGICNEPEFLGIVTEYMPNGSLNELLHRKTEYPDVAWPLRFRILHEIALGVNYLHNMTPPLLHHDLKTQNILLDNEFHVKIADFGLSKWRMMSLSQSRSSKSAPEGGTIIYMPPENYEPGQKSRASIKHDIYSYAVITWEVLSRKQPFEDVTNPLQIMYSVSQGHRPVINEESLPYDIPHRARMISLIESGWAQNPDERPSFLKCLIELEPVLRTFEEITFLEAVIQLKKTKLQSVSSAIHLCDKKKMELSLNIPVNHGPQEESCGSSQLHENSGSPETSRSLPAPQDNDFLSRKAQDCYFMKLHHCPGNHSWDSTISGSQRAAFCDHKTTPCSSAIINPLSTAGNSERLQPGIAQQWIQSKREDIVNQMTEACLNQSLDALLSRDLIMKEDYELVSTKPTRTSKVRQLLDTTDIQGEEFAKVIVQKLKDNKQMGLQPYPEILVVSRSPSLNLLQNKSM
Measured attribute: inhibition at 5 µM

Looking up COc1nc(C(=O)Nc2ccc(Oc3ccnc(C(=O)NC4COC4)c3)c(F)c2)c(-c2ccc(F)cc2)o1 [Compound 39] , I found its inhibition at 5 µM recorded as 50 to 79%

Looking up CSc1nc(C(=O)Nc2ccc(Oc3ccnc(C(=O)NC4COC4)c3)c(F)c2)c(-c2ccc(F)s2)o1 [Compound 28] , I found its inhibition at 5 µM recorded as < 50%

Looking up CNC(=O)c1ccc(Oc2ccc(NC(=O)c3nc(Cl)oc3-c3ccc(F)cc3)c(F)c2)cn1 [Compound 36] , I found its inhibition at 5 µM recorded as 50 to 79%

Looking up CNC(=O)c1cc(Oc2ccc(NC(=O)c3nc(OCC(F)(F)F)oc3-c3ccc(F)cc3)cc2F)ccn1 [Compound 38] , I found its inhibition at 5 µM recorded as 50 to 79%

Looking up CNC(=O)c1cc(Oc2ccc(NC(=O)c3nc(OC)oc3-c3ccc(F)cc3)cc2F)ccn1 [Compound 15] , I found its inhibition at 5 µM recorded as 80 to 89%

Looking up CSc1nc(C(=O)Nc2ccc(Oc3ccnc(C(=O)NC4COC4)c3)c(F)c2)c(-c2ccc(F)cc2)o1 [Compound 31] , I found its inhibition at 5 µM recorded as 50 to 79%

Looking up CSc1nc(C(=O)Nc2ccc(Oc3ccnc(C(=O)NC4COC4)c3)c(F)c2)c(-c2ccc(F)c(F)c2)o1 [Compound 37] , I found its inhibition at 5 µM recorded as < 50%

Looking up CSc1nc(C(=O)Nc2ccc(Oc3ccnc(C(=O)NCC(F)(F)F)c3)c(F)c2)c(-c2ccc(F)cc2)o1 [Compound 40] , I found its inhibition at 5 µM recorded as < 50%

Looking up CSc1nc(C(=O)Nc2ccc(Oc3ccnc(C(=O)NC4CNC4)c3)c(F)c2)c(-c2ccc(F)cc2)o1 [Compound 29] , I found its inhibition at 5 µM recorded as 80 to 89%

Looking up CNC(=O)c1cc(Oc2ccc(NC(=O)c3nc(NC)oc3-c3ccc(F)s3)cc2F)ccn1 [Compound 17] , I found its inhibition at 5 µM recorded as < 50%

Looking up CNC(=O)c1cc(Oc2ccc(NC(=O)c3nc(SC)oc3-c3ccc(F)c(F)c3)cc2)ccn1 [Compound 4] , I found its inhibition at 5 µM recorded as 80 to 89%

Looking up CNC(=O)c1cc(Oc2ccc(NC(=O)c3nc(SC)oc3-c3ccc(OC)cc3)cc2)ccn1 [Compound 7] , I found its inhibition at 5 µM recorded as < 50%

Looking up CNC(=O)c1cc(Oc2ccc(NC(=O)c3nc(SC)oc3-c3ccc(F)cc3Cl)cc2)ccn1 [Compound 3] , I found its inhibition at 5 µM recorded as 90 to 94%

Looking up CSc1nc(C(=O)Nc2ccc(Oc3ccnc(C(=O)NCCN(C)C)c3)c(F)c2)c(-c2ccc(F)cc2)o1 [Compound 41] , I found its inhibition at 5 µM recorded as 80 to 89%

Looking up CNC(=O)c1cc(Oc2ccc(NC(=O)c3nc(NC)sc3-c3ccc(F)cc3F)cc2F)ccn1 [Compound 21] , I found its inhibition at 5 µM recorded as 50 to 79%
